# System: MES-induced tonic hindlimb extension in male CD-1 mice
# measurement.notes: MES acute seizure model, protection from tonic hindlimb extension (Example 9)
# Assay type: in vivo, mouse
# measurement.parameters: Mus musculus; administered dose
metric: ED50 (mg/kg)
The response must be a number in mg/kg with no trailing unit.

Examples with answers:
>  <compound>
NC(=O)O[C@@H](Cn1ncnn1)c1ccccc1Cl [Cenobamate, cenobamate]

>  <readout.number>
4.1

$$$$
>  <compound>
Cc1cc(N2CCc3cc(F)ccc3C2)cc(C)c1NC(=O)CC(C)(C)C [XEN1101]

>  <readout.number>
3.9

$$$$

Record Nc1nnc(-c2cccc(Cl)c2Cl)c(N)n1 [Lamotrigine, lamotrigine] . Reported ED50: 3.8

Reported ED50 for CCOC(F)(F)c1nnc2ccc(-c3cnc(OCC(F)(F)F)c(F)c3)cn12 [Compound 1] was 0.42

Looking up NC(=O)N1c2ccccc2C=Cc2ccccc21 [Carbamazepine, carbamazepine] , I see its ED50 listed as 5.4

* * *

# measurement.notes: Spontaneous locomotor activity (sLMA) (Example 8)
# Assay type: in vivo, mouse
# measurement.parameters: male, CD-1, mouse, in vivo, po, 30 min before test, distance travelled
metric: TD50 (mg/kg)
All answers are understood in mg/kg, so give the number only.

get_value(item= "CCOC(F)(F)c1nnc2ccc(-c3cnc(OCC(F)(F)F)c(F)c3)cn12" , readout=TD50) returns 10.4

* * *

# experimental.target: human NaV1.6 (Homo sapiens)
# Construct: HEK-293 cell lines stably expressing human NaV1.6 (NP_055006) were used; expressed in transfected cells
# Sequence (Q9UQD0 whole entry): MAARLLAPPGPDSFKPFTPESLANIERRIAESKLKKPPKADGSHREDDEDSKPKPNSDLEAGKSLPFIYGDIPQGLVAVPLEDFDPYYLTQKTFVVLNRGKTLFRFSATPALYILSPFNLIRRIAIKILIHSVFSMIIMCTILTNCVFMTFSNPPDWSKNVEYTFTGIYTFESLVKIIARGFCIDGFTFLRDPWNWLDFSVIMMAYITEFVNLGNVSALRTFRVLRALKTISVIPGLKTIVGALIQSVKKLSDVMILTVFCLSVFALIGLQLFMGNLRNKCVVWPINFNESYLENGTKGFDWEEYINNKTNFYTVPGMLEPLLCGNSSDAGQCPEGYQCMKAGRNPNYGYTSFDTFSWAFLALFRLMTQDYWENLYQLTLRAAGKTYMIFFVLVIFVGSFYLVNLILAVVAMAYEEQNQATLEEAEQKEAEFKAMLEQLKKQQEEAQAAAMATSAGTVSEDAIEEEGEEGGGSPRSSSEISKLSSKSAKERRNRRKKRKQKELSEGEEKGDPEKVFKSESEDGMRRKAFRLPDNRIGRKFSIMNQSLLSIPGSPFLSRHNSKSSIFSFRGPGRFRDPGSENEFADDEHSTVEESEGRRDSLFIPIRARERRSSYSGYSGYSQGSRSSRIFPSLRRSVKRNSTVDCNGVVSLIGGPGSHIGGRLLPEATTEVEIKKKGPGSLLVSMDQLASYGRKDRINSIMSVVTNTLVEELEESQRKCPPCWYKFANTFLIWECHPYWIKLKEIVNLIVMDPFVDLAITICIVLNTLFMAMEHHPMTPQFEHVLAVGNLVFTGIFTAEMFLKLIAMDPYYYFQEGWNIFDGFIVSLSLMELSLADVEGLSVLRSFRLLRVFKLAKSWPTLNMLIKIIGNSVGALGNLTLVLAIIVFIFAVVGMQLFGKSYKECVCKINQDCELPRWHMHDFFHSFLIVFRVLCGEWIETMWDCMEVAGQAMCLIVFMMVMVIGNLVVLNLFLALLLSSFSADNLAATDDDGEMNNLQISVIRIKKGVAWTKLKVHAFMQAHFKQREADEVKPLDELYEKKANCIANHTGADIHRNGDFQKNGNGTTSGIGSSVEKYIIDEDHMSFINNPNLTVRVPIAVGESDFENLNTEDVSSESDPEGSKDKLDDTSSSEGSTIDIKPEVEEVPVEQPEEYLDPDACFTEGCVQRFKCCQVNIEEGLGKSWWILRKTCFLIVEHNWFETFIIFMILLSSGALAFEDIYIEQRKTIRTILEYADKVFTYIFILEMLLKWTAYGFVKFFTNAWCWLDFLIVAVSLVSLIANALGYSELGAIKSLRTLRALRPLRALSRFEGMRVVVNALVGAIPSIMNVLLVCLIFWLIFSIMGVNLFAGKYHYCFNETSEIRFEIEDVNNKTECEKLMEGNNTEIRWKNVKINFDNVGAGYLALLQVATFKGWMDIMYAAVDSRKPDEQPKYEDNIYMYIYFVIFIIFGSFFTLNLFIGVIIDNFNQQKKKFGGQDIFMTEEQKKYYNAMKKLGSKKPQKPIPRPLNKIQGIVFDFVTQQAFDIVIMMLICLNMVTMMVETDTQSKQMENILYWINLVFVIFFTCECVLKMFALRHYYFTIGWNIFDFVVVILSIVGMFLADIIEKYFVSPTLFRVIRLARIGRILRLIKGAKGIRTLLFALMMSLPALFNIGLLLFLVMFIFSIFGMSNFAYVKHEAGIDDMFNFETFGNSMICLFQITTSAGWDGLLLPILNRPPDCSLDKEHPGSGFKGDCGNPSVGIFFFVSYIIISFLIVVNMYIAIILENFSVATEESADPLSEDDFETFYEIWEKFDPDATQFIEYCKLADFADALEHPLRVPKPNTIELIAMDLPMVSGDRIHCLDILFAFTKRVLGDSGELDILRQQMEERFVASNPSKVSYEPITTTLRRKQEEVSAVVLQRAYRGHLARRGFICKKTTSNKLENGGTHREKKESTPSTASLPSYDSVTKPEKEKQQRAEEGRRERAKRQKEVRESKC
# measurement.notes: Persistent (late) INa inhibition, ATX-II activated, automated patch clamp in HEK cells
# Type: cell-based
# measurement.parameters: hNaV1.6 in HEK cells, ATX-II
metric: Persistent INa Hill slope

A selection of reference data follows.
>  <molecule>
NC(=O)N1c2ccccc2CC(=O)c2ccccc21 [Oxcarbazepine, oxcarbazepine]

>  <metric>
Persistent INa Hill slope

>  <result>
(1.0)

$$$$
>  <molecule>
NC(=O)O[C@@H](Cn1ncnn1)c1ccccc1Cl [Cenobamate, cenobamate]

>  <metric>
Persistent INa Hill slope

>  <result>
(1.1)

$$$$
>  <molecule>
CCOC(F)(F)c1nnc2ccc(-c3cnc(OCC(F)(F)F)c(F)c3)cn12

>  <metric>
Persistent INa Hill slope

>  <result>
(1.4)

$$$$
>  <molecule>
O=C1NC(=O)C(c2ccccc2)(c2ccccc2)N1

>  <metric>
Persistent INa Hill slope

>  <result>
(0.8)

$$$$
>  <molecule>
NC(=O)N1c2ccccc2C=Cc2ccccc21 [Carbamazepine, carbamazepine]

>  <metric>
Persistent INa Hill slope

>  <result>
(1.1)

$$$$
>  <molecule>
COC[C@@H](NC(C)=O)C(=O)NCc1ccccc1 [Lacosamide, lacosamide]

>  <metric>
Persistent INa Hill slope

>  <result>
(0.9)

$$$$

Proceed to the following item.
Entry "Nc1nnc(-c2cccc(Cl)c2Cl)c(N)n1" , Persistent INa Hill slope reported as (1.0)

* * *

We begin with a simple list: items and their reported Ratio to Pers. INa (Peak INa VDB).
# experimental.target: hNaV1.6 (Homo sapiens)
# Construct: expressed in transfected cells; host or cells: HEK cells
# measurement.notes: Peak INa voltage-dependent block (VDB), automated patch clamp in HEK cells
# Format: cell-based
# measurement.parameters: VDB IC50 / persistent INa IC50
Could you keep your reply to the number by itself?

Here is how some molecules turned out for Ratio to Pers. INa (Peak INa VDB).
>  <molecule>
CCOC(F)(F)c1nnc2ccc(-c3cnc(OCC(F)(F)F)c(F)c3)cn12 [Compound 1]

>  <metric>
Ratio to Pers. INa (Peak INa VDB)

>  <readout.number>
0.56

$$$$
>  <molecule>
NC(=O)N1c2ccccc2C=Cc2ccccc21 [Carbamazepine, carbamazepine]

>  <metric>
Ratio to Pers. INa (Peak INa VDB)

>  <readout.number>
0.6

$$$$
>  <molecule>
NC(=O)O[C@@H](Cn1ncnn1)c1ccccc1Cl [Cenobamate, cenobamate]

>  <metric>
Ratio to Pers. INa (Peak INa VDB)

>  <readout.number>
0.9

$$$$
>  <molecule>
NC(=O)N1c2ccccc2CC(=O)c2ccccc21 [Oxcarbazepine, oxcarbazepine]

>  <metric>
Ratio to Pers. INa (Peak INa VDB)

>  <readout.number>
0.3

$$$$
>  <molecule>
O=C1NC(=O)C(c2ccccc2)(c2ccccc2)N1 [Phenytoin, phenytoin]

>  <metric>
Ratio to Pers. INa (Peak INa VDB)

>  <readout.number>
0.8

$$$$

Now turn to the next molecule.
Ratio to Pers. INa (Peak INa VDB) recorded for this molecule, COC[C@@H](NC(C)=O)C(=O)NCc1ccccc1 [Lacosamide, lacosamide] , is 0.3

* * *

# experimental.target: hNaV1.6 (Homo sapiens)
# measurement.notes: Peak INa voltage-dependent block (VDB), automated patch clamp in HEK cells
# measurement.parameters: voltage-dependent block, Vm inactivation V1/2
metric: IC50 (nM)
Response body: numeric value in nM, unit text excluded.

Input CCOC(F)(F)c1nnc2ccc(-c3cnc(OCC(F)(F)F)c(F)c3)cn12 [Compound 1] . Output IC50: 72

* * *

# experimental.target: human NaV1.6 (Homo sapiens)
# Construct: HEK-293 cell lines stably expressing human NaV1.6 (NP_055006) were used; expressed in transfected cells
# measurement.notes: Peak INa tonic block (TB), automated patch clamp in HEK cells
# Assay type: cell-based
# measurement.parameters: peak INa TB IC50 / persistent INa IC50
// values below are reported Ratio to Pers. INa (Peak INa TB)
Just the number.

Some solved cases for reference:
>  <molecule>
CCOC(F)(F)c1nnc2ccc(-c3cnc(OCC(F)(F)F)c(F)c3)cn12

>  <metric>
Ratio to Pers. INa (Peak INa TB)

>  <readout.number>
68

$$$$
>  <molecule>
NC(=O)N1c2ccccc2CC(=O)c2ccccc21 [Oxcarbazepine, oxcarbazepine]

>  <metric>
Ratio to Pers. INa (Peak INa TB)

>  <readout.number>
8

$$$$
>  <molecule>
NC(=O)O[C@@H](Cn1ncnn1)c1ccccc1Cl [Cenobamate, cenobamate]

>  <metric>
Ratio to Pers. INa (Peak INa TB)

>  <readout.number>
24

$$$$

Lab note: NC(=O)N1c2ccccc2C=Cc2ccccc21 [Carbamazepine, carbamazepine] gave Ratio to Pers. INa (Peak INa TB) of 30

* * *

# Ratio to Pers. INa (Peak INa UDB-10 Hz) per entry
# experimental.target: human NaV1.6 (Homo sapiens)
# Construct: HEK-293 cell lines stably expressing human NaV1.6 (NP_055006) were used; expressed in transfected cells
# measurement.notes: Peak INa use-dependent block (UDB-10 Hz), automated patch clamp in HEK cells
# Type: cell-based
# measurement.parameters: UDB IC50 / persistent INa IC50
Could you keep your reply to the number by itself?

Solved entries (count: 4):
>  <molecule>
CCOC(F)(F)c1nnc2ccc(-c3cnc(OCC(F)(F)F)c(F)c3)cn12 [Compound 1]

>  <Ratio to Pers. INa (Peak INa UDB-10 Hz)>
1.6

$$$$
>  <molecule>
COC[C@@H](NC(C)=O)C(=O)NCc1ccccc1 [Lacosamide, lacosamide]

>  <Ratio to Pers. INa (Peak INa UDB-10 Hz)>
0.8

$$$$
>  <molecule>
O=C1NC(=O)C(c2ccccc2)(c2ccccc2)N1 [Phenytoin, phenytoin]

>  <Ratio to Pers. INa (Peak INa UDB-10 Hz)>
15

$$$$
>  <molecule>
NC(=O)O[C@@H](Cn1ncnn1)c1ccccc1Cl [Cenobamate, cenobamate]

>  <Ratio to Pers. INa (Peak INa UDB-10 Hz)>
11

$$$$

Now let's try a different one.
Hey, human NaV1.6 (Homo sapiens) data for NC(=O)N1c2ccccc2C=Cc2ccccc21 [Carbamazepine, carbamazepine] : Ratio to Pers. INa (Peak INa UDB-10 Hz) came out at 18

* * *

# measurement.notes: Spontaneous locomotor activity (sLMA) (Example 4)
# Assay type: in vivo, mouse
# measurement.parameters: male, CD-1, mouse, in vivo, po, 30 min post-dose, 30-minute test
metric: TD50 (mg/kg)
Write it as a number; the unit mg/kg goes unstated.

The reported TD50 of the molecule "CCOC(F)(F)c1nnc2ccc(-c3cnc(OCC(F)(F)F)c(F)c3)cn12" was 10.3

* * *

# experimental.target: hNaV1.6 (Homo sapiens, UniProt Q9UQD0)
# Construct: expressed in transfected cells; host or cells: HEK cells
# Sequence (Q9UQD0 whole entry): as above
# measurement.notes: Peak INa voltage-dependent block (VDB), automated patch clamp in HEK cells
# Type: cell-based
# measurement.parameters: voltage-dependent block
metric: Peak INa VDB Hill slope

Study these solved cases before continuing.
>  <compound>
NC(=O)N1c2ccccc2C=Cc2ccccc21 [Carbamazepine, carbamazepine]

>  <Peak INa VDB Hill slope>
(0.9)

$$$$
>  <compound>
COC[C@@H](NC(C)=O)C(=O)NCc1ccccc1 [Lacosamide, lacosamide]

>  <Peak INa VDB Hill slope>
(1.2)

$$$$
>  <compound>
NC(=O)O[C@@H](Cn1ncnn1)c1ccccc1Cl [Cenobamate, cenobamate]

>  <Peak INa VDB Hill slope>
(0.9)

$$$$
>  <compound>
NC(=O)N1c2ccccc2CC(=O)c2ccccc21 [Oxcarbazepine, oxcarbazepine]

>  <Peak INa VDB Hill slope>
(1.1)

$$$$

For "O=C1NC(=O)C(c2ccccc2)(c2ccccc2)N1" on hNaV1.6 (Homo sapiens, UniProt Q9UQD0), measured Peak INa VDB Hill slope was (1.0)

Let me check: "Nc1nnc(-c2cccc(Cl)c2Cl)c(N)n1" , system hNaV1.6 (Homo sapiens, UniProt Q9UQD0), measured Peak INa VDB Hill slope is (0.9)

hNaV1.6 (Homo sapiens, UniProt Q9UQD0) Peak INa VDB Hill slope of "CCOC(F)(F)c1nnc2ccc(-c3cnc(OCC(F)(F)F)c(F)c3)cn12" is (1.0)
